Data provenance is the supplement of paper PMC12636033.

Tested on: 2Sb-muMax20 (muMax20 with two 1,3-bis(methyl)benzene Cys staples, A13C/A17C and Q88C/A92C, C-terminal Lys)
Experiment: PBM 8-mer E-score (E-score (rank enrichment, -0.5 to 0.5)); higher = stronger preferential binding
Over roughly 33,000 sequences, “E-score (rank enrichment, -0.5 to 0.5)” has its median near -0.0028; the highest 2% begin near 0.23. This is one part of a sample in which the highest values are shown more often than they occur.
Response key: 1 (yes) means PBM 8-mer E-score >= 0.2; 0 (no) means PBM 8-mer E-score < 0.2.

- Sequence Chain: "ATTCATTG"
  Cat: "0 (no)"

Enquiry: Is PBM 8-mer E-score for AGTCATTG at or above 0.2?
Return: 1 (yes)

Enquiry: Is PBM 8-mer E-score for CCCAATTC at or above 0.2?
Return: 1 (yes)

Enquiry: Is PBM 8-mer E-score for CCTACACG at or above 0.2?
Return: 0 (no)

---

System: 2Sb-muMax20 (muMax20 with two 1,3-bis(methyl)benzene Cys staples, A13C/A17C and Q88C/A92C, C-terminal Lys)
Experiment: PBM 8-mer E-score (E-score (rank enrichment, -0.5 to 0.5)); higher = stronger preferential binding
The full ranking holds about 33,000 sequences; the median of “E-score (rank enrichment, -0.5 to 0.5)” is about -0.0028, and the highest 2% start at about 0.23. The list comes from a sample in which the highest values are over-represented; it also holds close analogues and randomly drawn sequences.
Would you mind classing the entries by PBM 8-mer E-score? Ranges: zone 1 (below 0.09), zone 2 (0.09 to below 0.2), zone 3 (0.2 or more)

The following sequences have reported results that may help.
- Sequence Chain: "ACATACAT"
  Cat: "zone 3"
- Sequence Chain: "ATACACAG"
  Cat: "zone 1"
- Sequence Chain: "GACAGAAA"
  Cat: "zone 2"
- Sequence Chain: "AACTATAA"
  Cat: "zone 2"
- Sequence Chain: "ACATACAC"
  Cat: "zone 2"

Enquiry: Into which bin does this sequence go? AACAGAAA
Return: zone 1

Enquiry: Into which bin does this sequence go? CAATACAA
Return: zone 3

Enquiry: Into which bin does this sequence go? AGTTATAA
Return: zone 2

Enquiry: Into which bin does this sequence go? GGACTCAA
Return: zone 1

---

Please go through the items and note down their PBM 8-mer E-score.
Tested on: 2Sb-muMax20 (muMax20 with two 1,3-bis(methyl)benzene Cys staples, A13C/A17C and Q88C/A92C, C-terminal Lys)
Test: PBM 8-mer E-score (E-score (rank enrichment, -0.5 to 0.5)); higher = stronger preferential binding
The full ranking holds about 33,000 sequences; the median of “E-score (rank enrichment, -0.5 to 0.5)” is about -0.0028, and the highest 2% start at about 0.23. Only a selection was taken, and the highest values are over-represented in it overall.
Answers are plain numbers.

- Sequence Chain: "ACGTGGAC"
  Measurement: 0.15
- Sequence Chain: "TGAAGTAA"
  Measurement: 0.1
- Sequence Chain: "ATGTGGAA"
  Measurement: 0.173

Quick one: give me PBM 8-mer E-score for each item below, same order please.
1. GTCGTAAC
2. AACCACGA
3. ACACATAT
4. AGATTGCA
5. GATGACCC
6. AACCACGC
7. CTAAGTTA
8. TAGAACGA

Return:
0.00633
0.068
0.124
-0.0404
-0.157
-0.0289
0.0294
0.0786

Quick one: give me PBM 8-mer E-score for each item below, same order please.
1. CATAACTA
2. AGAAGTAA
3. CAATGAGC
4. ATCGCCAA
5. TTATTGAA
6. TCACGAGA
7. ATATTGAA
8. AAACACGC

Return:
[0.0553, 0.141, -0.0934, -0.0483, 0.3, -0.0563, 0.0093, 0.0985]

Quick one: give me PBM 8-mer E-score for each item below, same order please.
1. AATAATCA
2. ACCCACGA
3. AATAACTA
4. ACACAAGA
5. CCTCACTA

Return:
1. 0.0347
2. 0.0473
3. 0.151
4. 0.0809
5. 0.127

Quick one: give me PBM 8-mer E-score for each item below, same order please.
1. CTTCCCGC
2. AATGACCC

Return:
1. 0.0401
2. 0.231
